testedTarget: human kappa opioid receptor (hKOR) (Homo sapiens, UniProt P41145)
Construct: expressed in transfected cells; host or cells: HEK-293 cells, transient transfection with Fugene6
Sequence (P41145 whole entry): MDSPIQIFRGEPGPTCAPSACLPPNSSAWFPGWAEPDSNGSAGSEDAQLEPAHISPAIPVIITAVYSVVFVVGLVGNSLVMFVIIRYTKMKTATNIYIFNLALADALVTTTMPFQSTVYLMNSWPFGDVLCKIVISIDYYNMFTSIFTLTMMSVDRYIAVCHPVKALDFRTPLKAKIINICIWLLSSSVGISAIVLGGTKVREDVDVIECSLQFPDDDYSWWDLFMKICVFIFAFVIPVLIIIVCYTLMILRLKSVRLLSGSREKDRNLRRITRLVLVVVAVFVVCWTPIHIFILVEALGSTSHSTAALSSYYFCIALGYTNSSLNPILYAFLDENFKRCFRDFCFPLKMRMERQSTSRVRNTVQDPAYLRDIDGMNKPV
protocolDescription: cell-based
recordedConditions: HEK293, read-out: hKOR Efficacy(%)
Square brackets hold non-standard residues; d marks the D form. Peptide text beside a SMILES is read from it. * marks the point of attachment. Piperidinyl(4-(1-Pro-OH)) = O=C(O)[C@@H]1CCCN1C1CCN(*)CC1; Piperidin1yl(4-NH2,4-COOH) = NC1(C(=O)O)CCN(*)CC1; Homopiperazinyl = C1CNCCN(*)C1; dAgp = N=C(N)NC[C@@H](N)C(=O)O; dOrn = NCCC[C@@H](N)C(=O)O; Inp = O=C(O)C1CCNCC1
Catalogue of compounds with associated Emax
I only need the number, in %, no unit after it.

Guide cases for Emax, answers given:
compound | Emax [%]
CC(C)C[C@@H](NC(=O)[C@@H](Cc1ccccc1)NC(=O)[C@H](N)Cc1ccccc1)C(=O)N[C@H](CCCCNC(C)C)C(=O)N1CCCN(C(=N)N)CC1 | 102
CC(C)C[C@@H](NC(=O)[C@@H](Cc1ccccc1)NC(=O)[C@H](N)Cc1ccccc1)C(=O)N[C@H](CCCNC(C)C)C(=O)N1CCCN(C(=N)N)CC1 | 100
CC(C)C[C@@H](NC(=O)[C@@H](Cc1ccccc1)NC(=O)[C@H](N)Cc1ccccc1)C(=O)N[C@H](CCCCN)C(=O)N1CCc2[nH]ncc2C1 | 100
CC(C)C[C@@H](NC(=O)[C@@H](Cc1ccccc1)NC(=O)[C@H](N)Cc1ccccc1)C(=O)N[C@H](CCCN)C(=O)N1CCC(C(=O)O)CC1 [Compound (46)] (H-[dF][dF][dL][dOrn][Inp]-OH) | 128
CC(C)C[C@@H](NC(=O)[C@@H](Cc1ccccc1)NC(=O)[C@H](N)Cc1ccccc1)C(=O)N[C@H](CCCCN)C(=O)N1CCC2(CCN(C)C2=O)CC1 | 99
CC(C)C[C@@H](NC(=O)[C@@H](Cc1ccccc1)NC(=O)[C@H](N)Cc1ccccc1)C(=O)N[C@H](CNC(=N)N)C(=O)N1CCC(N)(C(=O)O)CC1 [Compound (10)] (H-[dF][dF][dL][dAgp]-{Piperidin1yl(4-NH2,4-COOH)}) | 86
CC(C)C[C@@H](NC(=O)[C@@H](Cc1ccccc1)NC(=O)[C@H](N)Cc1ccccc1)C(=O)N[C@H](CCCCNC(C)C)C(=O)N1CCC(N)(C(=O)O)CC1 | 90
CC(C)C[C@@H](NC(=O)[C@@H](Cc1ccccc1)NC(=O)[C@H](N)Cc1ccccc1)C(=O)N[C@H](CCCCN)C(=O)N1CCN(S(C)(=O)=O)CC1 | 100

Query: Write down Emax measured for item CC(C)C[C@@H](NC(=O)[C@@H](Cc1ccccc1)NC(=O)[C@H](N)Cc1ccccc1)C(=O)N[C@H](CNC(=N)N)C(=O)N1CCC(N2CCC[C@H]2C(=O)O)CC1 [Compound (14)] (H-[dF][dF][dL][dAgp]-{Piperidinyl(4-(1-Pro-OH))})
Result: 81

Query: Write down Emax measured for item `CNCCCC[C@@H](NC(=O)[C@@H](CC(C)C)NC(=O)[C@@H](Cc1ccccc1)NC(=O)[C@H](N)Cc1ccccc1)C(=O)N1CCC(N2CCC[C@H]2C(=O)O)CC1`
Result: 100

Query: Write down Emax measured for item `CNCCC[C@@H](NC(=O)[C@@H](CC(C)C)NC(=O)[C@@H](Cc1ccccc1)NC(=O)[C@H](N)Cc1ccccc1)C(=O)N1CCCNCC1`
Result: 106

Query: Write down Emax measured for item `CC(C)C[C@@H](NC(=O)[C@H](N)Cc1ccccc1)C(=O)N[C@H](CCCN)C(=O)N[C@@H](CCCCNC(=O)[C@@H](CCCN)NC(=O)[C@@H](CC(C)C)NC(=O)[C@@H](Cc1ccccc1)NC(=O)[C@H](N)Cc1ccccc1)C(=O)O`
Result: 95

Query: Write down Emax measured for item `C/N=C(/N)N1CCCN(C(=O)[C@@H](CCCN)NC(=O)[C@@H](CC(C)C)NC(=O)[C@@H](Cc2ccccc2)NC(=O)[C@H](N)Cc2ccccc2)CC1`
Result: 96

Query: Write down Emax measured for item CC(C)C[C@@H](NC(=O)[C@@H](Cc1ccccc1)NC(=O)[C@H](N)Cc1ccccc1)C(=O)N[C@H](CNC(=N)N)C(=O)N1CCCNCC1 [Compound (20)] (H-[dF][dF][dL][dAgp]-Homopiperazinyl)
Result: 84
